Tested on: HS 578T breast
EXPERIMENT DESCRIPTION: NCI-60 one-dose screen, 48 h
EXPERIMENTAL PARAMETERS: 10 µM unless noted
About 83,000 compounds went through this panel and 20% of them were active in at least one assay; those are over-represented in the sample as a whole. Activity calls are given as the source filed them. Rule for the calls: active = growth percent below 10; inactive = the rest.
Possible outcomes: YES (active), NO (inactive)

{"CPD SMILES": "O=C(O)c1nc(-c2ccccc2)oc1N1CCOCC1", "LABEL VALUE": "NO"}
{"CPD SMILES": "CCCN=C1NC(=O)/C(=C/c2nc(-c3ccc(OC)cc3)n3ccccc23)S1", "LABEL VALUE": "YES"}
{"CPD SMILES": "COc1cccc(/C=C2\\Oc3cc(OCCCN4CCCC4)ccc3C2=O)c1OC", "LABEL VALUE": "NO"}
{"CPD SMILES": "O=c1c2sc3ncccc3c2nnn1-c1ccccc1", "LABEL VALUE": "NO"}
{"CPD SMILES": "COc1ccc(C2=C(c3cc(OC)c(OC)c(OC)c3)C(=O)CC2)cc1", "LABEL VALUE": "YES"}
{"CPD SMILES": "CCOC(=O)C1=C(C)NC(C)=C(C(=O)OCC)C1(C)C", "LABEL VALUE": "NO"}
{"CPD SMILES": "COc1cc(NC(N)=NCCC(C)(C)Oc2ccc(C(F)(F)F)cc2)ncc1C#N", "LABEL VALUE": "NO"}
{"CPD SMILES": "CCCCCCCC/C=C/CCCCCCCC1=NC(C)(C)CN1C(C)(C)CO", "LABEL VALUE": "NO"}
{"CPD SMILES": "COc1ccc2[nH]c(=O)c(/C=N/Nc3nc(-c4ccccc4)cs3)c(O)c2c1", "LABEL VALUE": "NO"}
{"CPD SMILES": "c1ccc(-c2nc(N3CCNCC3)c3nc(-c4ccccc4)oc3n2)cc1", "LABEL VALUE": "NO"}
{"CPD SMILES": "N=C(N)c1ccc(-c2ccc(-c3ccc(-c4cccs4)s3)s2)cc1", "LABEL VALUE": "NO"}
